Test system: E. coli (KpC+1812446) planktonic cells
Details: Table 8, planktonic cells; antibiotic in combination with VIH-CM15
Label condition met when MBIC Antibiotic + Peptide is strictly below 0.8 µM; at or above that, label condition not met.

>>> group_label("CC1(C)S[C@@H]2[C@H](NC(=O)[C@H](N)c3ccccc3)C(=O)N2[C@H]1C(=O)O")
"condition not met"
>>> group_label("[H]/N=C(/N)N[C@H]1[C@H](O)[C@@H](O)[C@H](O[C@@H]2O[C@@H](C)[C@](O)(C=O)[C@H]2O[C@@H]2O[C@@H](CO)[C@H](O)[C@@H](O)[C@@H]2NC)[C@@H](N/C(N)=N\\[H])[C@@H]1O")
"condition met"
>>> group_label("COc1cc(Cc2cnc(N)nc2N)cc(OC)c1OC")
"condition not met"
>>> group_label("C[C@@H](O)[C@H]1C(=O)N2C(C(=O)O)=C(S[C@@H]3CN[C@H](C(=O)N(C)C)C3)[C@H](C)[C@H]12")
"condition met"
